Target: Bcl-xL, Q07817
Sequence (Q07817 1-209): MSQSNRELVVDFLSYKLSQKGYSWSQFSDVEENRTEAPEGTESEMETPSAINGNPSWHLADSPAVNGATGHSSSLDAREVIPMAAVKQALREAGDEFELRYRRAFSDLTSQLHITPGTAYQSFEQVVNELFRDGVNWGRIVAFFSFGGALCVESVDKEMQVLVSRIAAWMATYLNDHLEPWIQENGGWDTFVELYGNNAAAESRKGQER
Assay: peptide SPOT array, c-Myc-tagged receptor at 1 uM or 100 nM, anti-c-Myc-Cy3
Simple rule here: SPOT signal as a fraction of Bim BH3's signal on the same receptor and array less than 0.5 is rule met, otherwise rule not met.

Task: Strictly below 0.5 in SPOT signal as a fraction of Bim BH3's signal on the same receptor and array? PYLSKHRADRMRRLLDFLNQESFDLA [SMPD2]
Result: rule not met

Task: Strictly below 0.5 in SPOT signal as a fraction of Bim BH3's signal on the same receptor and array? NRGYYDVAKQLLAAGAEVNTKGLDDD [ANKRD11]
Result: rule met

Task: Strictly below 0.5 in SPOT signal as a fraction of Bim BH3's signal on the same receptor and array? SDIRDDISEQDRHVGRTVRGHPRKKL [TMEM184C]
Result: rule met

Task: Strictly below 0.5 in SPOT signal as a fraction of Bim BH3's signal on the same receptor and array? AIKPVSFIRDDKKIARHFRFGNQEDA [USP36]
Result: rule not met

Task: Strictly below 0.5 in SPOT signal as a fraction of Bim BH3's signal on the same receptor and array? GSPDSMFGISLAVLGDLNQDGFPDIA [ITGA7]
Result: rule met

Task: Strictly below 0.5 in SPOT signal as a fraction of Bim BH3's signal on the same receptor and array? RIEERKAIIGLYNYAHEMTHGASDRE [NCKAP1]
Result: rule met

Task: Strictly below 0.5 in SPOT signal as a fraction of Bim BH3's signal on the same receptor and array? PAKKMTLSEIDRWICDNFPYYKNAGI [FOXJ2]
Result: rule not met
